# Ratio per entry
assay: Binding to amyloid beta (1 to 40) fibrils assessed as fold increase in compound fluorescence at 30 uM by fluorescence assay relative to control
Please state the value as a number alone, without comment.

Examples with their reported Ratio follow.
Sample smiles	Measurement name	Quantitative readout
CN(CCO)c1ccc(/C=C/c2cccc(Br)c2)cc1	Ratio	8.91
CNc1ccc(/C=C/c2cccc(OC)c2)cc1	Ratio	9.3
CN(CCO)c1ccc(/C=C/c2ccc(Br)cc2)cc1	Ratio	15.7

Task: Any idea what Ratio was measured for CNc1ccc(/C=C/c2ccc(Br)cc2)cc1 ?
Output: 25.8

###

assay: Binding affinity to amyloid beta (1 to 40)
# note: exactly 2000 nM is not below, so it is no; use yes for Kd strictly under it

Compound	Class assignment
Cc1ccc2c(c1)sc(-c1ccc(N(C)C)cc1)[n+]2C [THIOFLAVIN T]	no

Turning now to a further record.
Task: Find out if reported Kd for CNc1ccc(/C=C/c2ccc(Br)cc2)cc1 is less than 2000 nM
Output: yes

###

assay: Binding affinity to amyloid beta (1 to 40)
# Kd per entry

Sample smiles	Kd
CN(CCO)c1ccc(/C=C/c2cccc(Br)c2)cc1	2.89 µM
CNc1ccc(-c2nc3ccccc3s2)cc1	0.3 µM
CN(CCO)c1ccc(/C=C/c2ccc(Br)cc2)cc1	1.84 µM

# next compound below
Task: Any idea what Kd was measured for CNc1ccc(/C=C/c2cccc(OC)c2)cc1 ?
Output: 17.9 µM
